tgt: Nucleic Acid
assay: Binding affinity to HIV-1 TAR RNA by Tat-TAR fluorimetric competition assay
Type: nucleic-acid assay, Human immunodeficiency virus 1
Please respond with reported IC50 for every item in the list.
Give bare numbers, in µM.

In the examples that follow, each entry is paired with its recorded IC50.
[
  {
    "molecule": "Nc1ccc2nc(N)nc(N)c2c1 [QUINAZOLINE-2,4,6-TRIAMINE]",
    "measure_unit": "µM",
    "IC50": 40
  },
  {
    "molecule": "Nc1nc(N)c2cc(CN3CCNCC3)ccc2n1",
    "measure_unit": "µM",
    "IC50": 60
  }
]

Take each entry in turn and give its IC50.
1. Nc1nc(N)c2c(N)c(N)ccc2n1
2. Nc1ccc2c(N)nc(N)nc2c1
3. Nc1ccc2ccncc2c1
4. Cc1ccc2nc(N)nc(N)c2c1

[reply]
50
110
2000
2000

====

tgt: Nucleic Acid
assay: Binding affinity to HIV-1 TAR RNA by Tat-TAR fluorimetric competition assay
readout_type: IC50 (µM)
One number for each entry, in µM.

[
  {
    "line_notation": "NCc1ccc2nc(N)nc(N)c2c1",
    "IC50 [µM]": 70
  },
  {
    "line_notation": "NC1=Nc2cccc3cccc(c23)N1",
    "IC50 [µM]": 50
  },
  {
    "line_notation": "Nc1nc(N)c2cc(NCc3ccccc3)ccc2n1",
    "IC50 [µM]": 50
  },
  {
    "line_notation": "NCc1cnc2nc(N)nc(N)c2n1",
    "IC50 [µM]": 50
  },
  {
    "line_notation": "Nc1nccc2ccc(O)cc12",
    "IC50 [µM]": 750
  }
]

Answer for every listed entry: what is its IC50? The entries follow.
1. CN(C)C1=Nc2cccc3cccc(c23)N1
2. CN(C)c1nc(N(C)C)c2cc(N)ccc2n1

[reply]
[150, 130]

Report IC50 for every entry below.
1. Nc1nc(N)c2ccccc2n1
2. CN(C)c1ccc2nc(N)nc(N)c2c1

[reply]
400
45

====

For each record, write down the corresponding pIC50.
tgt: Nucleic Acid
assay: Binding affinity to HIV-1 TAR RNA by Tat-TAR fluorimetric competition assay
Answers are plain numbers, as −log10 of the molar value.

Example compounds with recorded pIC50:
[
  {
    "line_notation": "Nc1ccc2ccnc(N)c2c1",
    "value_measured": 3.82
  },
  {
    "line_notation": "CNC1=Nc2cccc3cccc(c23)N1",
    "value_measured": 4.30
  }
]

Turning now to a further compound:
[ask] I'd like to know its pIC50. The compound in question is `Nc1cccc2c(N)nccc12`
[reply] 3.15

====

Provide the reported IC50 of each item.
tgt: Nucleic Acid
assay: Binding affinity to HIV-1 TAR RNA by Tat-TAR fluorimetric competition assay
Counter-ions that a name gives are not always drawn.

[
  {
    "compound": "Nc1nc2ccccc2c(=O)[nH]1",
    "IC50": "> 20 mM"
  },
  {
    "compound": "N=C(N)N [GUANIDINE HYDROCHLORIDE]",
    "IC50": "> 20 mM"
  },
  {
    "compound": "Nc1ncccn1",
    "IC50": "> 20 mM"
  },
  {
    "compound": "NC1=Nc2ccccc2CN1",
    "IC50": "> 10 mM"
  }
]

Each of the following entries comes with a recorded value; kindly state IC50 for each.
1. c1ccc(CNC2=NCCN2)cc1
2. Nc1ncc[nH]1
3. Nc1nc2ccccc2[nH]1

[reply]
1. > 20 mM
2. > 2 mM
3. > 11 mM
